Below, each of the binders is paired with its reported EC50, CreLuc reporter, 100% hP value.
Molecular target: T1, human neuropeptide Y2 receptor (human, UniProt P49146 1-381)
T1 sequence (looked up): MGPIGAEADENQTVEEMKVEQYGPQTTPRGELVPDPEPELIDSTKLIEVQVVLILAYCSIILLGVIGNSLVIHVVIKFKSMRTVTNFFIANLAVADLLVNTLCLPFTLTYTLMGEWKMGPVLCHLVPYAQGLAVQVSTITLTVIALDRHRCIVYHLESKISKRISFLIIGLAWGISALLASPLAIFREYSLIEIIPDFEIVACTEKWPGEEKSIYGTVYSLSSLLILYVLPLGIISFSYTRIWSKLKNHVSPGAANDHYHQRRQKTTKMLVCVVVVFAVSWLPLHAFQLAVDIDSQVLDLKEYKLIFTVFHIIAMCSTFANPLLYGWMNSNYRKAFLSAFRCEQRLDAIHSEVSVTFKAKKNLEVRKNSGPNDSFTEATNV
Test: cell-based or functional assay
Observable: EC50, CreLuc reporter, 100% hP (nM)

Binder	Reported Measurement
YXEGTFTSDLSIXLEKQAQXAFVRHLLNKXTRQRY (Aib at 2, 13, 20, 30; Lys29 epsilon-amino: C20DA-gGlu-gGlu-gGlu-gGlu-gGlu-gGlu-eLys; C-terminal amide) [Compound 115]	107
YXEGTFTSDYSIXLEAQAQXAFVRHLINKXTRQRY (Aib at 2, 13, 20, 30; Lys29 epsilon-amino: C18DA-gGlu-gGlu-gGlu-gGlu-gGlu-gGlu-eLys; C-terminal amide) [Compound 123]	232
YXEGTFTSDYSIXLEKQAQXAFVRHLINKXTRQRY (Aib at 2, 13, 20, 30; Lys29 epsilon-amino: C20DA-gGlu-gGlu-gGlu-gGlu-gGlu-AHX-AHX; C-terminal amide) [Compound 106]	41.7
YXEGTFTSDYSIXLEGQAQXAFVRHLINKXTRQRY (Aib at 2, 13, 20, 30; Lys29 epsilon-amino: C18DA-gGlu-gGlu-gGlu-gGlu-gGlu-gGlu-eLys; C-terminal amide) [Compound 95]	96.3
YXEGTFTSDYSAXLEKQAQXAFVRHLINKXTRQRY (Aib at 2, 13, 20, 30; Lys29 epsilon-amino: C18DA-gGlu-gGlu-gGlu-gGlu-gGlu-gGlu-eLys; C-terminal amide) [Compound 156]	44.1
